EXPERIMENTAL_DETAILS: yeast display, Sf9 membrane polyspecificity reagent, FACS + sequencing; frameworks hold sequencing errors
MEASUREMENT_KIND: polyreactivity (PSR sort gate)

Worked set:
PRIMARY_SEQUENCE | RESULT
QVQLEESGGGIVQAGGSLRLSCAASGRIFYHYAMGGYRKAPGKEREWVAAISGSGGSTYYADSVKGGFTISRYNAKNTVYLQMNSLNPEDTAVFYCSTSGPQYYARNFDYCGQGTQVTVSS | low polyreactivity
QVQLVESGGGLVQAGGSLRLSCAASGFIFAYYAMGWYRQAPGKERELVAGNSGDGSTNYADSVKGRFTISRDNAKNTVYLQMNSLKPEDTAVYYCAAATGVGLEYDYWGQGTQVTVSS | low polyreactivity
QVQLVESGGGLVQAGGSLRLSCAASGSIVDNRGWYRQAPGKERELVAAISSSGDSTYYADSVKGRFTISRDNAKNTVYLQMNSLKPEDTAVYYCAADFYYYKKQYDYWGQGTQVTVSS | low polyreactivity
QVQLVESGGGLVQAGGSLRLSCAASGSIFRFNPMGWYRQAPGKERELVAAISWSGGLTYYADSVKGRFTISRDNAKNTVSLQMNSLKPEDTAVYYCNAGRRYPLRYDYWGQGTQVTVSS | high polyreactivity
QFQLVESGGGLVQAGGSLRLSCAASGSTFTQNTMGWYRQAPGKERELVAAISRRGGGTYYADSVKGRFTISRDNAKNTVYLQMNSLKPEDTAVYYCNAPYILTQQGGRRYDYWGQGTQVTVSS | high polyreactivity

Recorded polyreactivity (PSR sort gate) for QVQLVESGGGLVQAGGSLRLSCAASGRTFPGNAMGWYRQAPGKERELVAAINSGGSTYYADSVKGRFTISRDNAKNTVYLQMNSLKPEDTAVYYSAAYFGHYWRYYYWGQGTQVNVSS , please?
high polyreactivity

Bench note: what polyreactivity (PSR sort gate) did QVQLVESGGGLVQAGGSLRLSCAASGRIFSTNAMGWYRQAPGKERELVARINSGGGSTYADSVKGRFTISRDNAKNTVYLQMNSLKPEDTAVYYCAASRRFQWRAYGYWGQGTQVTVSS show?
high polyreactivity

For the sequence shown here, HVQLVESVGGLVQAGGSLRLRCAASGLTFRCNGMGWYRQEPGKETELVAAISSSGGSTYYADSVKGRFTISRDNAKNTVYLQLNSLKPEDTGVYFCARLVFYSQGVREMDYWGQGTQVTGSS , give the reported polyreactivity (PSR sort gate).
high polyreactivity

For the sequence shown here, QVQLVESGGGLVQAGGSLRLSCAASGFTFAGYAMGWYRQAPGKDRELVAAISWSGGRTYYADSVKGRFTISRDNAKNTVYLQMNSLKPEDTAVYYCAKLTLSSRWYYIYDYWGQGTQVTVSS , give the reported polyreactivity (PSR sort gate).
high polyreactivity

What value of polyreactivity (PSR sort gate) has been reported for the following sequence? QVQLVESGGGLVQAGGSLRLSCAASGFTFTFNAMGWYRQEPGKEREFVAAITWSGGSTYYADSVKGRFTISRDNAKNTVYLQMNSLKPEDTAVYYCAARLYRSFTFNYWGQGTQVTVSS
high polyreactivity

Endpoint output: polyreactivity (PSR sort gate) of QVQLVESGGGLVQAGGSVRLSCAASGFIFWYSAMGWYRQAPGKERELVAAISGTGGTTYYADSVKGRFTISRDNAKNTVYLQMNSLKPEDTAVYYCNFRYDSRRTAIGYAYWGQGTQETVSS . Value?
low polyreactivity
